assay: in vitro; conditions: human, hela cells, % viability
The following compounds are shown together with reported viability at 28.5 h, 10 µM values.
Express your answer in %, writing the number without its unit.

{"columns": ["Compound", "Endpoint Unit", "Reading"],
 "data": [
  ["CC(Sc1ccc(Cl)cc1)C(=O)NCCN1CCOCC1 (centres unmarked) [CBK269316]", "%", 111],
  ["Fc1ccc(CSc2nc3ccccc3nc2C(F)(F)F)cc1 [CBK107199]", "%", 98.6],
  ["COc1ccc(-c2cncc(C3CN(Cc4ccc(C)cc4OC)CCO3)n2)cc1 (centres unmarked) [CBK286100]", "%", 91.8]
]}

Record CCN(CC(O)COc1ccc2ccccc2c1)S(=O)(=O)O (centres unmarked) [CBK261113K] , field viability at 28.5 h, 10 µM: 87.2

Record O=C(CC1Sc2ccc(Cl)cc2NC1=O)Nc1ccc([N+](=O)[O-])cc1 (centres unmarked) [CBK264860] , field viability at 28.5 h, 10 µM: 98

* * *

experiment: in vitro; conditions: human, hela cells, % viability
The following compounds are shown together with reported viability at 28.5 h, 10 µM values.
Express your answer in %, writing the number without its unit.

Sample answers from the record:
{"columns": ["Compound", "Reading"],
 "data": [
  ["Cc1cc(OC(C)C(=O)Nc2ncccc2C)ccc1Cl (stereo not shown) [CBK269637]", 78.4],
  ["O=C(O)CCC(=O)Nc1ccccc1C(=O)O [CBK261325]", 91.1],
  ["COc1cc(NC(=O)N2CCC(C(=O)O)CC2)cc(OC)c1OC [CBK156076]", 97.8],
  ["Cc1ccc(N(CC(=O)N/N=C2\\C(=O)Nc3ccccc32)S(=O)(=O)c2ccccc2)cc1 [CBK262169]", 105],
  ["COc1ccc(CCNC(=O)CCCc2cn(C)c3ccccc23)cc1OC [CBK061740]", 100],
  ["CCc1nc(-c2ccc(N(C)C)nc2)nn1C [CBK307381]", 106],
  ["Cc1cc(S(=O)(=O)Nc2cccc(Br)c2)c(C)cc1Cl [CBK043652]", 80.8],
  ["CSc1nc(NC(=O)c2cc(-c3ccccc3)oc2C)cc(N2CCNCC2)n1 [CBK050364T]", 89.9],
  ["COc1ccc(CCCC(=O)Nc2cc(N3CCNCC3)ncn2)cc1OC [CBK107856]", 93.9]
]}

Record CC(C)CC1CC(=O)Nc2c1c(=O)[nH]n2C(C)C (stereo not shown) [CBK287924] , field viability at 28.5 h, 10 µM: 105

* * *

test: in vitro; settings: human, hela cells, % viability
The following compounds are shown together with reported viability at 28.5 h, 10 µM values.
Express your answer in %, writing the number without its unit.

{"columns": ["Compound", "Endpoint Unit", "Reading"],
 "data": [
  ["COc1ccccc1C1(O)CC2CCC(C1)N2 (stereo not drawn)", "%", 81.9],
  ["COc1ccc(CN2CCCN(c3ccnc(OCC4COc5ccccc5O4)n3)CC2)cc1 (stereo not drawn) [CBK083234T]", "%", 96.8],
  ["CN1CCC[C@H]1C(=O)Nc1cc(-c2ccncc2)c[nH]c1=O", "%", 107],
  ["CCCn1c(SCC(=O)NCCN2C(=O)CSC2=O)n[nH]c1=O", "%", 89.2],
  ["C=CCn1c(-c2sc(NC(=O)CNC(=O)C(C)(C)C)nc2C)n[nH]c1=S", "%", 91.2]
]}

Record O=C(CN1C2CCC1CC(O)(c1ccco1)C2)N1CCCCC1 (stereo not drawn) , field viability at 28.5 h, 10 µM: 90.3

Record COc1ccc([N+](=O)[O-])cc1NC(=O)N[C@@H]1CC[C@@]2(c3ccc(OC)c(OC)c3)CCN(C)[C@H]2C1 [CBK036449T] , field viability at 28.5 h, 10 µM: 111

Record C=C(C)Cn1c(=O)c2c(nc3[nH]c(C)c(C)n32)n(C)c1=O , field viability at 28.5 h, 10 µM: 102

Record Cc1oc(S(=O)(=O)N(C)C)cc1C(=O)O , field viability at 28.5 h, 10 µM: 98.1

These entries and their values trace back to paper PMC12040169.
